Reported Serum concentration by item:
assay: Concentration of BRAF/MEK inhibitors in patient serum/plasma by LC-MS/MS; type: in vivo, human; details: day 5 after treatment initiation; encorafenib/binimetinib given day 1-3 then discontinued, dabrafenib/trametinib from day 4
Numbers only here, please. The scale is ng/mL.

Answered examples (3):
1. Cn1cnc2c(F)c(Nc3ccc(Br)cc3F)c(C(=O)NOCCO)cc21 [Binimetinib, binimetinib]
96.5
2. CC(C)(C)c1nc(-c2cccc(NS(=O)(=O)c3c(F)cccc3F)c2F)c(-c2ccnc(N)n2)s1 [Dabrafenib, dabrafenib]
322.9
3. COC(=O)N[C@@H](C)CNc1nccc(-c2cn(C(C)C)nc2-c2cc(Cl)cc(NS(C)(=O)=O)c2F)n1 [Encorafenib, encorafenib]
13.5

We now examine a further compound.
For CC(=O)Nc1cccc(-n2c(=O)n(C3CC3)c(=O)c3c(Nc4ccc(I)cc4F)n(C)c(=O)c(C)c32)c1 [Trametinib, trametinib] , what is its reported Serum concentration? 8.8

====

Reported CSF concentration by item:
test: Concentration of BRAF/MEK inhibitors in patient CSF by LC-MS/MS; format: in vivo, human; details: day 7 after treatment initiation; CSF via EVD
Numbers only here, please. The scale is ng/mL.

Answered examples (3):
1. COC(=O)N[C@@H](C)CNc1nccc(-c2cn(C(C)C)nc2-c2cc(Cl)cc(NS(C)(=O)=O)c2F)n1
1.1
2. Cn1cnc2c(F)c(Nc3ccc(Br)cc3F)c(C(=O)NOCCO)cc21
5.3
3. CC(C)(C)c1nc(-c2cccc(NS(=O)(=O)c3c(F)cccc3F)c2F)c(-c2ccnc(N)n2)s1
6.1

We now examine a further compound.
For CC(=O)Nc1cccc(-n2c(=O)n(C3CC3)c(=O)c3c(Nc4ccc(I)cc4F)n(C)c(=O)c(C)c32)c1 , what is its reported CSF concentration? 0.3

====

assay: Tolerability of oral regimen in the patient; format: in vivo, human; conditions: oral hard capsules and tablets; quantity and size
OUTCOME MEASURE: Tolerability by the patient

1) COC(=O)N[C@@H](C)CNc1nccc(-c2cn(C(C)C)nc2-c2cc(Cl)cc(NS(C)(=O)=O)c2F)n1
poorly tolerated
2) Cn1cnc2c(F)c(Nc3ccc(Br)cc3F)c(C(=O)NOCCO)cc21
poorly tolerated
3) CC(=O)Nc1cccc(-n2c(=O)n(C3CC3)c(=O)c3c(Nc4ccc(I)cc4F)n(C)c(=O)c(C)c32)c1
better tolerated
4) CC(C)(C)c1nc(-c2cccc(NS(=O)(=O)c3c(F)cccc3F)c2F)c(-c2ccnc(N)n2)s1
better tolerated

====

assay: Concentration of BRAF/MEK inhibitors in patient serum/plasma by LC-MS/MS; assay type: in vivo, human; conditions: day 8 after treatment initiation; encorafenib/binimetinib given day 1-3 then discontinued, dabrafenib/trametinib from day 4
Reported Serum concentration by item:
Numbers only here, please. The scale is µg/mL.

1. CC(C)(C)c1nc(-c2cccc(NS(=O)(=O)c3c(F)cccc3F)c2F)c(-c2ccnc(N)n2)s1
0.0946
2. COC(=O)N[C@@H](C)CNc1nccc(-c2cn(C(C)C)nc2-c2cc(Cl)cc(NS(C)(=O)=O)c2F)n1
0.0061
3. Cn1cnc2c(F)c(Nc3ccc(Br)cc3F)c(C(=O)NOCCO)cc21
0.0138

We now examine a further compound.
For CC(=O)Nc1cccc(-n2c(=O)n(C3CC3)c(=O)c3c(Nc4ccc(I)cc4F)n(C)c(=O)c(C)c32)c1 , what is its reported Serum concentration? 0.0092
